Assignment: determine reported Ki for the given molecules.
- Subject of test: 5-hydroxytryptamine receptor 2C (Homo sapiens, UniProt P28335)
- Sequence (P28335 whole entry): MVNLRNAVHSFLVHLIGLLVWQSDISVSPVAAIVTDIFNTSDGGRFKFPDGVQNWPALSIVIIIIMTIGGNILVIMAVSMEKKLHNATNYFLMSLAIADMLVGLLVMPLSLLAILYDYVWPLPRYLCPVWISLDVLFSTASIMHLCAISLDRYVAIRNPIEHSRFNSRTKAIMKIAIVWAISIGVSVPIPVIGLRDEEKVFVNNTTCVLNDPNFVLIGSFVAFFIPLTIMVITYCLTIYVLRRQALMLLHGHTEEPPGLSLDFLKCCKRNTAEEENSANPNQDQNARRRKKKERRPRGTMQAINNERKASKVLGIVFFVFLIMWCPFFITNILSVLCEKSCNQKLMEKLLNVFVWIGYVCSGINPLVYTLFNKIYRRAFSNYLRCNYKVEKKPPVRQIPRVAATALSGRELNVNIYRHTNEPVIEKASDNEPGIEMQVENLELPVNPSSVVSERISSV
- Protocol notes: DRUGMATRIX: Serotonin (5-Hydroxytryptamine) 5-HT2C radioligand binding (ligand: [3H] Mesulergine)
- Type: cell membranes, CHO-K1, Membrane
- Conditions: Not Active = under 50% inhibition at 10 µM; read-out: Ki
Report the value in nM with no unit label.

# input Look up Ki: CCOc1cc(N)c(Cl)cc1C(=O)NCC1CN(Cc2ccc(F)cc2)CCO1 (centres undefined) [MOSAPRIDE]
# output 208

# input Item under review: Cc1cc(C(C)(C)C)c(O)c(C)c1CC1=NCCN1 [OXYMETAZOLINE] . Reported Ki?
# output 303

# input Any idea what Ki was measured for CCN(CC)CCNC(=O)c1cc(Cl)c(N)cc1OC [METOCLOPRAMIDE] ?
# output 1250

# input Quick one: Ki for Clc1cc(Cl)c(OCC#CI)cc1Cl [HALOPROGIN] ?
# output 1360

# input Would you kindly share the measured Ki for CC(CN1c2ccccc2Sc2ccccc21)N(C)C (centres undefined) [PROMETHAZINE] ?
# output 6.48

# input Reported Ki for CC(=O)Nc1ccc2c(c1)Cc1ccccc1-2 [2-ACETYLAMINOFLUORENE] : what is it?
# output 1120

# input Returns the measured Ki for the input molecule. Input: CC(N)Cc1c[nH]c2ccc(OCc3cccs3)cc12 (centres undefined) [BW-723C86]
# output 107

# input Consider the molecule shown here: c1ccc2c(c1)Nc1ccccc1S2 [PHENOTHIAZINE] What is its recorded Ki?
# output 1170

# input Which measured Ki value corresponds to COc1ccccc1OCCNCC(O)COc1cccc2[nH]c3ccccc3c12 (centres undefined) [CARVEDILOL] ?
# output 60

----------
- Subject of test: Histamine H2 receptor (Homo sapiens, UniProt P25021)
- Sequence (P25021 whole entry): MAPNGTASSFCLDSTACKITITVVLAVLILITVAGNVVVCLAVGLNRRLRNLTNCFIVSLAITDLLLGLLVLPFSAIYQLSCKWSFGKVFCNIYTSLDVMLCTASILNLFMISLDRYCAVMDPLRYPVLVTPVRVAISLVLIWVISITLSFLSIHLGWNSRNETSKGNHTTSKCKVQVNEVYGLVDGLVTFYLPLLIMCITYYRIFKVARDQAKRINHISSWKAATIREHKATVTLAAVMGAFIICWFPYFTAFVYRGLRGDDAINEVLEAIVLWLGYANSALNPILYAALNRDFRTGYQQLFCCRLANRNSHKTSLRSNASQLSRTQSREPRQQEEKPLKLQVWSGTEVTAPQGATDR
- Type: cell membranes, CHO-K1, Membrane
- Conditions: cho-k1
Measured attribute: IC50

Look over these answered cases.
COPPER(II) OXIDE ... Not Active
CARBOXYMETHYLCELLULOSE ... Not Active
POVIDONE ... Not Active
LEAD(IV) ACETATE ... Not Active

Shift focus to the following entry.
# input Recorded IC50 of CHROMIC CHLORIDE , please.
# output Not Active

----------
- Protocol notes: DRUGMATRIX: Phosphodiesterase PDE4 enzyme inhibition (substrate: [3H]cAMP + cAMP)
- Conditions: u-937; Not Active = under 50% inhibition at 10 µM
Measured attribute: Ki

O=C(O)c1cc(/N=N/c2ccc(S(=O)(=O)Nc3ccccn3)cc2)ccc1O [SULFASALAZINE] ... Not Active
Cc1ccc(Cl)c(Nc2ccccc2C(=O)O)c1Cl [MECLOFENAMIC ACID] ... Not Active
O=[As][O-].[Na+] [SODIUM ARSENITE] ... Not Active
COC(=O)Nc1nc2ccc(C(=O)c3ccccc3)cc2[nH]1 [MEBENDAZOLE] ... Not Active
CC(=O)Nc1ccc2c(c1)Cc1ccccc1-2 [2-ACETYLAMINOFLUORENE] ... Not Active
O=C(O)CCc1nc(-c2ccccc2)c(-c2ccccc2)o1 [OXAPROZIN] ... Not Active

# input Which Ki is reported for this compound? C=CCN1CC[C@]23c4c5ccc(O)c4O[C@H]2/C(=N/N=C2\CC[C@@]4(O)[C@H]6Cc7ccc(O)c8c7[C@@]4(CCN6CC=C)[C@H]2O8)CC[C@@]3(O)[C@H]1C5 [NALOXONAZINE]
# output Not Active

# input Entry NC(=O)NC(=O)Cc1ccccc1 [PHENACEMIDE] has what Ki?
# output Not Active

# input Consider the compound NC(N)=Nc1nc(CSCCC(N)=NS(N)(=O)=O)cs1 [FAMOTIDINE] and give its measured Ki.
# output Not Active

# input Fill in: Ki of O=C(c1ccccc1)c1ccc2n1CCC2C(=O)O (centres undefined) [KETOROLAC] is ___
# output Not Active
